What IC50, BRE-luciferase reporter in C2C12 cells was measured for each of the following?
- system.under.test: T1, BMP-9 (UniProt Q9UK05 320-429)
- T1 sequence (looked up): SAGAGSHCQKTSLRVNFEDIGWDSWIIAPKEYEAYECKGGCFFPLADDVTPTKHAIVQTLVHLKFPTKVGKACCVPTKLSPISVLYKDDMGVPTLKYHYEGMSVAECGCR
- assay.procedure: cell-based or functional assay
The reply should contain only the number, in µg/mL.

Look up and report measured IC50, BRE-luciferase reporter in C2C12 cells for this entry: ActRIIA-A6 (SEQ ID NO: 108) chimera-Fc protein (Fc fusion, Tested as chimera-Fc protein; not shown: linker (if any) and Fc domain) GAILGRSETQECLFFNANWEKDRTNQTGVEPCYGDKDKRRHCFATWKNISGSIEIVKQGCWLDDINCYDRTDCVEKEENPQVYFCCCEGNMCNEKFSYFPEMEVTQPTS
8.8

Identify IC50, BRE-luciferase reporter in C2C12 cells associated with the binder ActRIIA-A8 (SEQ ID NO: 110) chimera-Fc protein (Fc fusion, Tested as chimera-Fc protein; not shown: linker (if any) and Fc domain) GAILGRSETQECLFFNANWEKDRTNQTGVEPCYGDKDKRRHCFATWKNISGSIEIVKQGCWLDDINCYDRTDCVEKKDSPEVYFCCCEGNMCNEKFSYFPEAGGPEVTYEPPPTAPT
1.9

Provide IC50, BRE-luciferase reporter in C2C12 cells value for the following binder: ActRIIA-A3 (SEQ ID NO: 106) chimera-Fc protein (Fc fusion, Tested as chimera-Fc protein; not shown: linker (if any) and Fc domain) GAILGRSETQECLFFNANWEKDRTNQTGVEPCEGEQDKRRHCFATWKNISGSIEIVKQGCWLDDINCYDRTDCVEKKDSPEVYFCCCEGNMCNEKFSYFPEMEVTQPTS
12

State its IC50, BRE-luciferase reporter in C2C12 cells for this binder: ActRIIA-A5 (SEQ ID NO: 107) chimera-Fc protein (Fc fusion, Tested as chimera-Fc protein; not shown: linker (if any) and Fc domain) GAILGRSETQECLFFNANWEKDRTNQTGVEPCYGDKDKRRHCFATWKNISGSIEIVKQGCWLDDFNCYDRQECVEKKDSPEVYFCCCEGNMCNEKFSYFPEMEVTQPTS
4.2
